assay.target: Cellular tumor antigen p53 (Homo sapiens) (UniProt P04637)
Sequence (P04637 whole entry, looked up): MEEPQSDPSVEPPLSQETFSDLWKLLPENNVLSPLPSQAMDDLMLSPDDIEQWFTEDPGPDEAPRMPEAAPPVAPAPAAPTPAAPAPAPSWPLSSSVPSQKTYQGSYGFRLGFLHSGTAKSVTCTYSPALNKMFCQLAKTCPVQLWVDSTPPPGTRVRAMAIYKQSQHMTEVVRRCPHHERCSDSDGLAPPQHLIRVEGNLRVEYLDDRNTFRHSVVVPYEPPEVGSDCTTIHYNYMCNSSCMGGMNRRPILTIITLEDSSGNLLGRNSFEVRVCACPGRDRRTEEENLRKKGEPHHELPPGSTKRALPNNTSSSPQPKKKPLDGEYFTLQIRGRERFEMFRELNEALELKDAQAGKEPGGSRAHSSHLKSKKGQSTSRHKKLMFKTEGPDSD
assay.details: TOX21_p53_BLA_p5_ratio: Tox21 HCT-116 p53 Agonism Beta-lactamase Assay, Ratio, Phase 5 (AID 2283599)
Description: TOX21_p53_BLA_p5 is a cell-based, single-readout assay that uses HCT116, a human intestinal cell line, […] in a 1536-well plate.TOX21_p53_BLA_p5_ratio is an assay readout measuring reporter gene via receptor activity and designed using inducible reporter (beta lactamase induction) detected with GAL4 b-lactamase reporter gene. […] This assay endpoint, TOX21_p53_BLA_p5_ratio, was analyzed in the positive analysis fitting direction relative to DMSO as the negative control and baseline of activity. […]
Results filed as inconclusive are left out. Calls of active or inactive are those of the source. Rule for the calls: active = hit-call score of the fitted dose curve at least 0.9, where 1 is the maximum; inconclusive = response in the unintended direction; inactive = score below 0.9.
Hello, when you answer, please use one of the following outcomes: y for active, n for inactive

Examples with answers:
compound: C=C(C)c1ccccc1
label.class: n
--
compound: O=C(O)c1nc(=O)[nH]c(=O)[nH]1
label.class: n
--
compound: COc1cc2c(cc1OC)C(=O)C(CC1CCN(Cc3ccccc3)CC1)C2 (configuration not stated)
label.class: n
--
compound: NC(Cc1ccc(F)cc1)C(=O)O (configuration not stated)
label.class: n
--
compound: CCCCC(CC)CN=C(N)NC(N)=NCCCCCCN=C(N)NC(N)=NCC(CC)CCCC (configuration not stated)
label.class: y

Proceed to the following item.
Request: Returns: the outcome recorded for CCCCCCCCCCC(=O)O in this assay.
Result: n

----------
assay.target: Cellular tumor antigen p53 (Homo sapiens) (UniProt P04637)
assay.details: TOX21_p53_BLA_p2_ratio: Tox21 HCT-116 p53 Agonism Beta-lactamase Assay, Ratio, Phase 2 (AID 2283592)
Results filed as inconclusive are left out. Calls of active or inactive are those of the source. Rule for the calls: active = hit-call score of the fitted dose curve at least 0.9, where 1 is the maximum; inconclusive = response in the unintended direction; inactive = score below 0.9.
In this exercise, the only acceptable responses are Yes (active), No (inactive)

Request: Status in this test for CCCCCCCCCCCCCCNCCO ?
Result: No

Request: Same again, this time with Cc1cccc(CN2CCN(C(c3ccccc3)c3ccc(Cl)cc3)CC2)c1 (stereo not given)
Result: No

Request: Could you do the same for O=S(=O)(O)CCN1CCN(CCO)CC1 , please?
Result: No

Request: Entry NS(=O)(=O)c1ccc(NC(=O)CCC(=O)O)cc1 please
Result: No

Request: Check O=S(=O)(O)CCS too.
Result: No

----------
assay.details: TOX21_p53_BLA_p4_viability: Viability Assessment in the Tox21 HCT-116 p53 Agonism Beta-lactamase Assay, Phase 4 (AID 2283597);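 note: hits lower the luminescence signal meaning cytotoxicity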
Records with an inconclusive call do not appear. Calls of active or inactive are those of the source. The calls were made as follows: active = hit-call score of the fitted dose curve at least 0.9, where 1 is the maximum; inconclusive = response in the unintended direction; inactive = score below 0.9. Where a SMILES comes first, the peptide text is derived from it. Bridges are numbered along the chain shown (N, C = ends). [ ]: non-standard residue; d: D form. The star is where a group is joined. Ileψ(thiazoline)Cys = CC[C@H](C)[C@H](N)C1=N[C@H](C(=O)*)CS1; dOrn = NCCC[C@@H](N)C(=O)O
Can you answer with just one of these options? Yes (active), No (inactive)

compound: N=C1N=C(N)c2cc3ccccc3cc21
label.class: Yes
--
compound: O=[N+]([O-])c1cccc(I)c1
label.class: No
--
compound: CN1CCN(CCCN2c3ccccc3Sc3ccc(Cl)cc32)CC1
label.class: Yes
--
compound: CC(=O)C=Cc1ccco1
label.class: No
--
compound: CO[C@H]1/C=C/O[C@@]2(C)Oc3c(C)c(O)c4c(O)c(c(/C=N/N5CCN(C6CCCC6)CC5)c(O)c4c3C2=O)NC(=O)/C(C)=C\C=C\[C@H](C)[C@H](O)[C@@H](C)[C@@H](O)[C@@H](C)[C@H](OC(C)=O)[C@@H]1C
label.class: Yes
--
compound: CC[C@H](C)[C@H](N)C1=N[C@H](C(=O)N[C@@H](CC(C)C)C(=O)N[C@H](CCC(=O)O)C(=O)N[C@H](C(=O)N[C@H]2CCCCNC(=O)[C@H](CC(N)=O)NC(=O)[C@@H](CC(=O)O)NC(=O)[C@H](Cc3cnc[nH]3)NC(=O)[C@@H](Cc3ccccc3)NC(=O)[C@H]([C@@H](C)CC)NC(=O)[C@@H](CCCN)NC2=O)[C@@H](C)CC)CS1 ({Ileψ(thiazoline)Cys}-L[dE]IK[dOrn]I[dF]H[dD]N; lactam 4-C)
label.class: No
--
compound: FC(F)(F)c1ccc(Cl)cc1Cl
label.class: No
--
compound: CC(C)COC(=O)COc1cc(Cl)c(Cl)cc1Cl
label.class: No

Request: What was the test verdict on O=C(O)O ?
Result: No

----------
assay.target: Nuclear receptor subfamily 1 group I member 2 (Homo sapiens) (UniProt O75469)
Sequence (O75469 whole entry, looked up): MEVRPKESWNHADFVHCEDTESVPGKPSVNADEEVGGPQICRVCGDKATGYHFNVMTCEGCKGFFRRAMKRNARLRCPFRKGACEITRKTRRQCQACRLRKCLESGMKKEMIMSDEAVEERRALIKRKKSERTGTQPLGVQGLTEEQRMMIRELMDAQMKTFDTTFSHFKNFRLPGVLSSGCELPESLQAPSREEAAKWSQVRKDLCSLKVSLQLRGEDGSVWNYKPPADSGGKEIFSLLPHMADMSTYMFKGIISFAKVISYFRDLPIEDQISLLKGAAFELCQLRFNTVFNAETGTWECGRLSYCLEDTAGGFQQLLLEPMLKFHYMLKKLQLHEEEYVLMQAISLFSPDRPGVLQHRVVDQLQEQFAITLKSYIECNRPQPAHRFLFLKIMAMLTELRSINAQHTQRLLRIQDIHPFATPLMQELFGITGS
assay.details: NVS_NR_hPXR: NovaScreen (NVS) Nuclear Receptor Binding Assay for human Pregnane X Receptor (PXR) (AID 2283365);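 note: a drop in FRET signal versus DMSO baseline means the compound binds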
Results filed as inconclusive are left out. Active and inactive are the calls of the source. The calls were made as follows: active = hit-call score of the fitted dose curve at least 0.9, where 1 is the maximum; inconclusive = response in the unintended direction; inactive = score below 0.9.
The reply should name one outcome from active, inactive

These recorded examples may help you get a feel for the data.
molecule: Nc1ccc(S(=O)(=O)Nc2cnc3ccccc3n2)cc1
label.class: inactive
--
molecule: COC(=O)[C@]1(C)CCC[C@@]2(C)[C@H]1CC=C1C=C(C(C)C)CC[C@@H]12
label.class: inactive

Request: What is the recorded call for this molecule in the test? O=C(OCc1ccccc1)c1ccccc1
Result: inactive

Request: Also need O=C(CC(C(=O)OC1CCCCC1)S(=O)(=O)O)OC1CCCCC1 (centres undefined) , thanks.
Result: active

----------
Read-out: Plasminogen activator inhibitor-1 (PAI1), SERPINE1 (gene 5054)
assay.details: BSK_MyoF_PAI1: BioMAP Diversity Plus: MyoF Assay for Plasminogen activator inhibitor-1 (PAI1) Biomarker Activity (AID 2284256)
condition.context: primary human lung fibroblasts
Activity calls are given as the source filed them. Rule for the calls: active = hit-call score of the fitted dose curve at least 0.9, where 1 is the maximum; inactive = score below 0.9.
// one of active, inactive, no free text

Consider the worked cases shown below.
compound: OC(C(F)(F)F)(C(F)(F)F)C(O)(C(F)(F)F)C(F)(F)F
label.class: active
--
compound: CN(C)c1ccc(C(c2ccccc2)c2ccc(N(C)C)cc2)cc1
label.class: inactive
--
compound: CCCCCCCCCCC1CO1 (centres undefined)
label.class: active
--
compound: CCCCCCC(O)CCCCCCCCCCC(=O)OC (centres undefined)
label.class: inactive
--
compound: Sc1nc2ccccc2s1
label.class: inactive

Request: Tell me the recorded outcome of this test for CC[N+](CC)(CC(=O)Nc1c(C)cccc1C)Cc1ccccc1 .
Result: inactive

Request: Another: Cc1cccnc1
Result: inactive

Request: How about Cc1cc(-n2nc3ccc(Cl)cc3n2)c(O)c(C(C)(C)C)c1 ?
Result: inactive

Request: Same lookup for CN(C)CCC(c1ccc(Cl)cc1)c1ccccn1 (centres undefined) , please.
Result: inactive

----------
assay.details: TOX21_p53_BLA_p2_viability: Viability Assessment in the Tox21 HCT-116 p53 Agonism Beta-lactamase Assay, Phase 2 (AID 2283591);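 note: compound exposure lasted 16 h at 37 °C; actives lower the ATP signal meaning cytotoxicity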
Records with an inconclusive call do not appear. Active and inactive are the calls of the source. Rule for the calls: active = hit-call score of the fitted dose curve at least 0.9, where 1 is the maximum; inconclusive = response in the unintended direction; inactive = score below 0.9. Where a SMILES comes first, the peptide text is derived from it. Bridges are numbered along the chain shown (N, C = ends). [ ]: non-standard residue; d: D form. The star is where a group is joined. Ileψ(thiazoline)Cys = CC[C@H](C)[C@H](N)C1=N[C@H](C(=O)*)CS1; dOrn = NCCC[C@@H](N)C(=O)O
Output constraint: value belongs to Yes (active), No (inactive)

Consider the worked cases shown below.
compound: CCc1ccc(S(=O)(=O)O)cc1
label.class: No
--
compound: O=C1c2ccccc2C(=O)C1(O)O
label.class: Yes
--
compound: COc1cc(NS(=O)(=O)c2ccc(N)cc2)ncn1
label.class: No

Request: Can you look up the reported call for CCCCC(CC)COC(=O)C=Cc1ccc(OC)cc1 (stereo not given) for me?
Result: No

Request: Likewise for CC(=O)SC[C@@H](Cc1ccccc1)C(=O)NCC(=O)OCc1ccccc1 ?
Result: No

Request: Now consider NC(=O)Nc1ccc(Cl)c(Cl)c1 and answer again.
Result: No

Request: Next compound: CC[C@H](C)[C@H](N)C1=N[C@H](C(=O)N[C@@H](CC(C)C)C(=O)N[C@H](CCC(=O)O)C(=O)N[C@H](C(=O)N[C@H]2CCCCNC(=O)[C@H](CC(N)=O)NC(=O)[C@@H](CC(=O)O)NC(=O)[C@H](Cc3cnc[nH]3)NC(=O)[C@@H](Cc3ccccc3)NC(=O)[C@H]([C@@H](C)CC)NC(=O)[C@@H](CCCN)NC2=O)[C@@H](C)CC)CS1 ({Ileψ(thiazoline)Cys}-L[dE]IK[dOrn]I[dF]H[dD]N; lactam 4-C)
Result: No

Request: And then CCCCCCCCCCCCCCCCCCOP(=O)([O-])OC1CC[N+](C)(C)CC1 , what is it?
Result: No

Request: And CC1=C(/C=C/C(C)=C/C=C/C(C)=C\C=O)C(C)(C)CCC1 ?
Result: Yes
